Attribution: ChEMBL document CHEMBL1123667

Assign pA2 to each entry below.
# study-system: Muscarinic acetylcholine receptor
# protocol: Affinity for the Muscarinic acetylcholine receptor
# Assay type: protein assay, Rattus norvegicus
# print the numeric value only

Consider CCN(CC)CCOC(=O)C(CO)c1ccccc1.Cl (single isomer, unassigned; (-)) . Its measured pA2 is 7.4

# compound CCN(CC)CCO[C@H]1CCCC[C@@H]1c1ccccc1.Cl (relative stereo) ; its pA2 = 6.38

Sample CCN(CC)CCOC(=O)C(COS(=O)(=O)c1ccc(C)cc1)c1ccccc1.Cl (single isomer, unassigned; (+)) ; pA2 observed: 6.67

Memo: CCN(CC)CCOC(=O)C(COS(=O)(=O)c1ccc(C)cc1)c1ccccc1.Cl (single isomer, unassigned; (-)) , reported pA2: 6.42

Value of pA2 reported for the compound CCN(CC)CCO[C@@H]1CCCC[C@@H]1c1ccccc1.Cl (relative stereo) is 7.13

Measured pA2, CCN(CC)CCOC(=O)C(C)(c1ccccc1)c1ccccc1.Cl : 8.4

// C=C(C(=O)OCCN(CC)CC)c1ccccc1.Cl : pA2 value = 5.86

Lookup result for CCN(CC)CCOC(=O)C(c1ccccc1)c1ccccc1.Cl [ADIPHENINE HYDROCHLORIDE] ; measured pA2: 7.45

Item: CCN(CC)CCOC(=O)C(CC)(c1ccccc1)c1ccccc1.Cl | pA2: 6.63

----------
# Organism: Cavia porcellus
# protocol: Antispasmodic activity against isolated guinea pig ileum with metacholine as a spasmogen according to the method of Magnus.
# Type: functional
# protocol-conditions: read-out: ID50 (the source's name)
Can you tell me IC50 for the items I'm about to list?
Please state the figure in nM; there is no need to write the unit.

Value of measured IC50 for the entry CCN(CC)CCOC(=O)C(CO)c1ccccc1.Cl (single isomer, unassigned; (-)) : 31

Noted for CCN(CC)CCOC(=O)C(CO)c1ccccc1.Cl (racemic) : its IC50 reads 70

The value of IC50 measured for the molecule CCN(CC)CCOC(=O)C(CO)c1ccccc1.Cl (single isomer, unassigned; (+)) turned out to be 210

The reported value for CCN(CC)CCOC(=O)C(CCCCO)c1ccccc1.Cl (racemic) in terms of IC50 is 1100

----------
# Species on record: Cavia porcellus
# protocol: Antispasmodic activity against isolated guinea pig ileum with metacholine as a spasmogen according to the method of Magnus.
# Type: functional
# protocol-conditions: Cavia porcellus, Ileum; read-out: ID50 (the source's name)
// assign True if IC50 falls strictly below 700 nM, else False (ties count as False)

Please indicate whether the reported IC50 of CCCC(C(=O)OCCN(CC)CC)(c1ccccc1)c1ccccc1.Cl [PROADIFEN HYDROCHLORIDE] is strictly below 700 nM.
False

Consider the molecule CCN(CC)CCOC(=O)C(CC(C)C)(c1ccccc1)c1ccccc1.Cl . Is its IC50 strictly less than 700 nM?
False

Report whether reported IC50 is lower than 700 nM (strictly) for CCN(CC)CCOC(=O)C(CC)(c1ccccc1)c1ccccc1.Cl
True

Please state whether IC50 is below 700 nM for CCCCC(C(=O)OCCN(CC)CC)(c1ccccc1)c1ccccc1.Cl
False

Quick check: IC50 of CCN(CC)CCOC(=O)C(c1ccccc1)c1ccccc1.Cl [ADIPHENINE HYDROCHLORIDE] under 700 nM?
False

API: query returns whether the molecule falls strictly under 700 nM in IC50. Query: CCN(CC)CCOC(=O)C(c1ccccc1)(c1ccccc1)C(C)C.Cl
False

Field: below-cutoff. Rule: recorded IC50 strictly less than 700 nM. Subject: CCN(CC)CCOC(=O)C(CCCCO)c1ccccc1.Cl (single isomer, unassigned; (+))
False

Report whether reported IC50 is lower than 700 nM (strictly) for CCN(CC)CCOC(=O)C(C)(c1ccccc1)c1ccccc1.Cl
True
